Could you please report measured COX-2 activity (% of control) for the items listed next?
# SYSTEM: human recombinant COX-2 (Homo sapiens, UniProt P35354)
# Construct: purchased Cayman Chemical Co. 60122
# Sequence (P35354 18-604): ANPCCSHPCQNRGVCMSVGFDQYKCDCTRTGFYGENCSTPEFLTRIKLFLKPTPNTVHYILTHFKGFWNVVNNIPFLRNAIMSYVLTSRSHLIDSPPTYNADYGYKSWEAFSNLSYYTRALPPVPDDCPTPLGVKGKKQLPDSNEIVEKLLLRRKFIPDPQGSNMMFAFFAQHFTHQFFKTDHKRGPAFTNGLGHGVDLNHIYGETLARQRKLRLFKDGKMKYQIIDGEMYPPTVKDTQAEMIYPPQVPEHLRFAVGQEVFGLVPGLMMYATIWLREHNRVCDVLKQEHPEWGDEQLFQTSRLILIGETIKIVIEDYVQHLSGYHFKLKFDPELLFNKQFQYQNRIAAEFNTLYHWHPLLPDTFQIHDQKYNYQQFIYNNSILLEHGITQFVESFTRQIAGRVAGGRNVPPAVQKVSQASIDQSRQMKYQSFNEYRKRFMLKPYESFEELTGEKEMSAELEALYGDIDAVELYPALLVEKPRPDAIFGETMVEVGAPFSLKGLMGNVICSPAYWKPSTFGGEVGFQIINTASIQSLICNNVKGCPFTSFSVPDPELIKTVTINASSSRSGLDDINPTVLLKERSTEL
# METHOD_DESCRIPTION: COX-2 oxygenation of 2-AG, oxygen electrode
# Assay type: biochemical
# EXPERIMENTAL_CONTEXT: 100 µM NSAID; substrate 2-AG 10 µM; initial activity 10-30 s; n = 3

**Query** Short answer please: COX-2 activity (% of control), human recombinant COX-2 (Homo sapiens, UniProt P35354), entry CC(CO)Cc1ccc(C(C)C(=O)O)cc1 (centres unmarked) [3′-OH-Ibuprofen]
**Result** 73±14 % of control

**Query** # returns recorded COX-2 activity (% of control) (system: human recombinant COX-2 (Homo sapiens, UniProt P35354)) for CC(C(=O)O)c1ccc(C(O)C(C)C)cc1 (centres unmarked) [1′-OH-Ibuprofen]
**Result** 103±22 % of control

**Query** Please tell me: COX-2 activity (% of control) of CC(C(=O)O)c1ccc(CC(C)(C)O)cc1 (centres unmarked) [2′-OH-Ibuprofen] , system human recombinant COX-2 (Homo sapiens, UniProt P35354)?
**Result** 125±24 % of control

**Query** # value lookup — system human recombinant COX-2 (Homo sapiens, UniProt P35354), readout COX-2 activity (% of control), item CC(C(=O)O)c1ccc(-c2ccc(O)cc2)c(F)c1 (centres unmarked) [4′-OH-Flurbiprofen]
**Result** 24±4 % of control

**Query** Param readout= COX-2 activity (% of control); system= human recombinant COX-2 (Homo sapiens, UniProt P35354); entry= CC(Cc1ccc(C(C)C(=O)O)cc1)C(=O)O (centres unmarked) [Carboxyibuprofen] ; returns value.
**Result** 105±19 % of control
